target: UniProtKB P30874; assay: SSTR binding affinity by radioligand binding competition assay ([125I]-Tyr11-Somatostatin, membrane extracts); conditions: radioligand competition, [125I]-Tyr11-Somatostatin 0.1 nM, membrane extracts; Ki from IC50 by Cheng Prusoff; read-out: SSTR2 Ki
Sequence (P30874 whole entry): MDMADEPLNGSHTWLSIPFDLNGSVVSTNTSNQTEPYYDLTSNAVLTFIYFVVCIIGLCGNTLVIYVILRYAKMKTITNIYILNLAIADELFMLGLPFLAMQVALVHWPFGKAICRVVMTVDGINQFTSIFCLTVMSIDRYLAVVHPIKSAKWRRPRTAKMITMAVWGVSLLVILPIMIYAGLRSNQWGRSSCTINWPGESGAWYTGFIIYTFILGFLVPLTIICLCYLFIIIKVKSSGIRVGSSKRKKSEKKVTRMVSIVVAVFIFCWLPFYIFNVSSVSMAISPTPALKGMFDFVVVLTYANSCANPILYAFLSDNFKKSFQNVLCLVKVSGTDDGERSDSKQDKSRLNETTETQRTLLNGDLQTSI
Square brackets hold non-standard residues; d marks the D form. Peptide text beside a SMILES is read from it. * marks the point of attachment. DOTA(Lu)NH(CH2)6NHCOCH2 = O=C(CN1CCN2CCN3CCN(CC1)CC(=O)[O][Lu]([O]C(=O)C2)[O]C(=O)C3)NCCCCCCNC(=O)C*; NMehCys = CN[C@@H](CCS)C(=O)O
Listed next: entries and their corresponding Ki.

# molecule, Ki
records = [
    ("C[C@@H](O)[C@@H]1NC(=O)[C@H](CCCCN)NC(=O)[C@@H](Cc2c[nH]c3ccccc23)NC(=O)[C@H](Cc2ccc(O)cc2)NC(=O)[C@H](CCSCC(=O)NCCCCCCNC(=O)CN2CCN3CCN4CCN(CC2)CC(=O)[O][Lu]([O]C(=O)C3)[O]C(=O)C4)N(C)C(=O)CNC1=O [RB-0004819] (cyclo(G[NMehCys](DOTA(Lu)NH(CH2)6NHCOCH2)Y[dW]KT))", "< 1 nM"),
]

Now examine the next entry.
[Q] Requested read-out: Ki. Entry: `CCN(C)CC(=O)[O][Lu]1[O]C(=O)CN(C)CCN(CCN(CC)CC(=O)NCCCCCC(=O)NCCCCC[C@H]2C(=O)N[C@@H](Cc3ccc(O)cc3)C(=O)N[C@H](Cc3c[nH]c4ccccc34)C(=O)N[C@@H](CCCCN)C(=O)N[C@@H]([C@@H](C)O)C(=O)N[C@@H](Cc3ccccc3)C(=O)N2C)CC(=O)[O]1`
[A] < 1 nM

###

Listed next: entries and their corresponding Ki.
target: UniProt:P30874; assay: SSTR binding affinity by radioligand binding competition assay ([125I]-Tyr11-Somatostatin, membrane extracts); conditions: radioligand competition, [125I]-Tyr11-Somatostatin 0.1 nM, membrane extracts; Ki from IC50 by Cheng Prusoff; read-out: SSTR2 Ki
Numbered stars: 1 amine (or outer) side, 2 acyl side, 3 side chain; on linkers, the order of the positions; unused ones are H or OH. Square brackets hold non-standard residues; d marks the D form. Peptide text beside a SMILES is read from it. * marks the point of attachment. DOTA(Lu)NH(CH2)6NHCOCH2 = O=C(CN1CCN2CCN3CCN(CC1)CC(=O)[O][Lu]([O]C(=O)C2)[O]C(=O)C3)NCCCCCCNC(=O)C*; DOTA(Lu) = O=C1CN2CCN3CCN(CC(=O)*)CCN(CC2)CC(=O)[O][Lu]([O]1)[O]C(=O)C3; dTrp(βS-Me) = C[C@@H](c1c[nH]c2ccccc12)[C@@H](N)C(=O)O; X16 = NC1CCC(C[C@H](N[*:1])C(=O)[*:2])CC1; X21 = CC(c1ccccc1)[C@H](N[*:1])C(=O)[*:2]; NMehCys = CN[C@@H](CCS)C(=O)O; NMeK = CN[C@@H](CCCCN)C(=O)O

# molecule, Ki
records = [
    ("CC(c1ccccc1)[C@@H]1NC(=O)[C@H]([C@@H](C)O)NC(=O)[C@H](CCCCN)NC(=O)[C@@H](Cc2c[nH]c3ccccc23)NC(=O)[C@H](Cc2ccc(O)cc2)NC(=O)[C@H](CCSCC(=O)NCCCCCCNC(=O)CN2CCN3CCN4CCN(CC2)CC(=O)[O][Lu]([O]C(=O)C3)[O]C(=O)C4)N(C)C1=O (stereo partly drawn) [RB-0003281] (cyclo(KT[X21][NMehCys](DOTA(Lu)NH(CH2)6NHCOCH2)Y[dW]))", "3.33 to 10 nM"),
    ("C[C@@H](O)[C@@H]1NC(=O)[C@H](CC2CCC(N)CC2)NC(=O)[C@@H]([C@@H](C)c2c[nH]c3ccccc23)NC(=O)[C@H](Cc2ccc(O)cc2)NC(=O)[C@H](CCCCNC(=O)CN2CCN3CCN4CCN(CC2)CC(=O)[O][Lu]([O]C(=O)C3)[O]C(=O)C4)N(C)C(=O)[C@H](Cc2ccccc2)NC1=O (stereo partly drawn) [RB-0006387] (cyclo(F[NMeK](DOTA(Lu))Y[dTrp(βS-Me)][X16]T))", "< 1 nM"),
]

[Q] Requested read-out: Ki. Entry: C[C@@H](O)[C@@H]1NC(=O)[C@H](CCCCN)NC(=O)[C@@H](Cc2c[nH]c3ccccc23)NC(=O)[C@H](Cc2ccc(O)cc2)NC(=O)[C@H](CCSCC(=O)NCCCCCCNC(=O)CN2CCN3CCN4CCN(CC2)CC(=O)[O][Lu]([O]C(=O)C3)[O]C(=O)C4)N(C)C(=O)[C@@H]2CCCN2C1=O [RB-0005864] (cyclo(KTP[NMehCys](DOTA(Lu)NH(CH2)6NHCOCH2)Y[dW]))
[A] 1 to 3.33 nM
